- System: MS2 coat protein
- procedure_details: apparent Kd, MS2 coat protein; higher = weaker binding; RNA-MaP array
- setup_conditions: designed as: OFF switch for flavin mononucleotide; no ligand
Record form. Attribute: apparent Kd. Fill in for each entry.
Write it as a number; the unit nM goes unstated.

Q: Item: CGGUAGUUUUAGAAGGAGCAACCAAGUUUACAUGAGGAUCACCCAUGUGUGAGGAUAUGUUAAGGCUAGGAUAUAAUAGAACCU Test system: MS2 coat protein Read-out: apparent Kd Value: ?
Result: 25.4

Q: Could you do the same for AUCUGGAGAGGAUAUUGAUCGGAACACAUGAGGAUCACCCAUGUGAGCCCUCGUGUCCCUCAAGAAGGCUCGGGCG , please?
Result: 5.73

Q: Another: GCCAAGGUAACAGGAUAUUCUAAAGACGUGAGAUACUAAAUAAACAUGAGGAUCACCCAUGUGAAGAAGAAGGGUUAAGAGUAC
Result: 15.2

Q: Request: UGUCGUAAAGGAUAUACAUGAGGAUCACCCAUGUCGGCCGUUAGGCCGUAAGGUGUGCGUAGAAGGUUACAUUG
Result: 191

----------
- Test system: MS2 coat protein
- procedure_details: apparent Kd, MS2 coat protein; higher = weaker binding; RNA-MaP array; tryptophan 2.4 mM where present
- setup_conditions: designed as: OFF switch for tryptophan; no ligand
value_type: apparent Kd (nM)
Please give a number only; it is taken to be in nM.

Q: Sample AAAGAUCGGAAACGAUCGGCGGCUUGGGCGCGAGGACCGGUACGGCCGCCACUCGGGAAACAUGAGGAUCACCCAUGUUGCUAGC — what was its apparent Kd?
Result: 13.7

Q: Next: AGUUUAGACACGGCCGCCACUCGUGACAGAUUUAGCAGUGGUCAACAUGAGGAUCACCCAUGUCUGAGGACCGGGUGUUGAGUUU
Result: 177

Q: Request: AACAUGAGGAUCACCCAUGUGUCCUCGAAACGAGGACCGGUACGGCCGCCACUCGAAAGGUGUUGACGAAAAGUCAGCACCAAAA
Result: 302

Q: Next record, please: UAUAUAUAUCACGAACUGUGGUGUAUGUCCCGAGGACCGGUACGGCCGCCACUCGCGUGGUUCCACAUGAGGAUCACCCAUGUUG
Result: 18.9

Q: Then this sequence: ACAUGAGGAUCACCCAUGUGAAGCAGGGUACGAGGACCGGUACGGCCGCCACUCGAGCAUUAUACCGAGUGAAUGGCAACGAUGU
Result: 15.7

Q: And then AGAUUCGACACGGCCGCCACUCGUGCCGGAUUACCGAGUGUCGAACAUGAGGAUCACCCAUGUACGAGGACCGGGUGUUGAGUCU , what is it?
Result: 37.7

Q: Request: UAUCGAGGUACAUGAGGAUCACCCAUGUAUCGAGGACCGGUACGGCCGCCACUCGAUAAUGGCGGAUCGUUAGUCCUCUUCGAUA
Result: 10.7

Q: Same question, UGAUACCAGUCGGCCGCCACUAUGCUAGAUACUAGCAAUAAAGGGCGACAUGAGGAUCACCCAUGUAGGACCGGGACUGGUAUCU this time
Result: 11.2

----------
- Tested on: MS2 coat protein
- procedure_details: apparent Kd, MS2 coat protein; higher = weaker binding; RNA-MaP array; theophylline 2 mM where present
- setup_conditions: ligand present: theophylline; designed as: ON switch for theophylline
So I've got a bunch of sequences here, and I need their apparent Kd values.
// return numeric value only (unit: nM, not printed)

Q: Quick one: apparent Kd of UGUAACAUGAGGAUCACCCAUGUAAGUGAUACCAGAUAAGUAGUAGUCCCUUGGCAGCAUAUUGGGCAAGUGUAUAGUCUAUACG ?
Result: 53.5

Q: For AUAACAUGAGGAUCACCCAUGUUGAGUGAUACCAGACUAUGUAAUGUCCCUUGGCAGCACAAGUAAAGUUAUAAAUAAUGAUAGA then?
Result: 25.1

Q: Next up: AGUACUCGAACGGAUACCAGCCGGACAUGAGGAUCACCCAUGUCCUACCAUGGUUCGGUUGGCCCUUGGCAGCCGUUCGUGUACA
Result: 20.2

Q: Same again, this time with ACUCGGUGUUUGUUGCUCCGAGUACGUGAUACCAGUUAAUUUUAUGGCCCUUGGCAGCAUGGGACAUGAGGAUCACCCAUGUUUA
Result: 396

Q: Next up: UGUAUGUGAUUUGAUACCAGAUCAGCUGGUUAUACAUGAGGAUCACCCAUGUUACUUUGGGUCCCUUGGCAGCAAAUCGCAUACU
Result: 28.4

Q: Check AUAAGUACGUCAGAUACCAGACAGCCAGACUUACAUGAGGAUCACCCAUGUGGAUGGACGGUCCCUUGGCAGCUGGCCGCAAAAG too.
Result: 14.2
